# System Under Test: pWT PDZ2 L391F (human) (UniProt Q12959)
# Sequence (Q12959 311-407, change not shown): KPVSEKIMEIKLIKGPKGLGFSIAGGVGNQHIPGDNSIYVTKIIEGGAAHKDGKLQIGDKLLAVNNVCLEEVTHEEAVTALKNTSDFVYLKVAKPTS
# Protocol Details: stopped-flow spectroscopy
pKd: −log10 of the molar value. Ends that are not written are not given here.

Binder | pKd
Ac-KRKETLV [KRKETLV peptide (C-terminus of neuroepithelial cell-transforming gene 1 protein, Net1)] | 7.10

meta.source: paper PMC5046105
